meta.source: PubChem BioAssay (NCI)

Test system: HS 578T breast
Test name: NCI-60 one-dose screen, 48 h (100 = growth as untreated, 0 = no growth, -100 = all killed)
Study conditions: 10 µM
The panel holds about 83,000 compounds, 20% with a hit somewhere; the sample as a whole holds those more often.
Observed property: growth (%)

molecule=Cc1ccccc1[P+](Cc1ccccc1)(c1ccccc1)c1ccccc1 test_result=54.4
molecule=COc1ccc(NC(=O)CCn2cnc3c(cc(-c4ccccc4)n3-c3ccccc3)c2=O)cc1 test_result=46
molecule=Cc1ccc(-n2nnc3c(sc4ccccc43)c2=O)cc1 test_result=23
molecule=Fc1ccc2[nH]c3c(NCCCN4CCOCC4)ncnc3c2c1 test_result=34.5
molecule="COc1ccc(C2C=C(c3ccc(Cl)c(Cl)c3)N=C3SC(C)=CN32)cc1OC (centres undefined)" test_result=90.8
molecule=C=CCN1C(=O)/C(=C\c2ccc3c(c2)CCC3)SC1=S test_result=112
molecule=O=C(COCc1c(-c2ccccc2)no[n+]1[O-])Nc1nc(-c2ccc(Cl)cc2)cs1 test_result=99.6
molecule=CN(C1c2ccccc2Oc2ccccc21)S(=O)(=O)c1cc(Cl)ccc1Cl test_result=76.2
molecule=Nc1c(C(=O)NC2CCCCC2)sc2nc3c(cc12)C(=O)CCC3 test_result=102
molecule="O/N=C1\\CCC2CCCCC2C1 (centres undefined)" test_result=108
molecule=COc1ccc(C(=O)c2sc3nc(-c4cccs4)ccc3c2N)cc1OC test_result=50.4
molecule="CCCCCCCCCCCC(c1ccccc1)N(C)C (centres undefined)" test_result=93.3
molecule=O=C(CSc1nnc(-c2ccc(Cl)cc2)o1)c1ccccc1 test_result=101
molecule=O=C(Nc1cccc(Cl)c1)OCC(COC(=O)Nc1cccc(Cl)c1)(COC(=O)Nc1cccc(Cl)c1)[N+](=O)[O-] test_result=52.1

* * *

System: NCI-H460 lung
Test name: NCI-60 one-dose screen, 48 h (100 = growth as untreated, 0 = no growth, -100 = all killed)
Study conditions: 10 µM
Compounds without any hit were thinned out: in the full panel of roughly 83,000, 20% have a hit.
Observed property: growth (%)

compound="O=C(c1ccccc1)C(Nc1ccccc1)c1ccccc1 (stereo unspecified)" measured_on="NCI-H460 lung" test_result=98.1
compound=CCOC(=O)c1sc(Nc2ncccn2)nc1-c1ccccn1 measured_on="NCI-H460 lung" test_result=66.9
compound="O=[N+]([O-])C1CC2C=CC1C2 (stereo unspecified)" measured_on="NCI-H460 lung" test_result=108
compound=COc1ccc2nc(-c3ccccc3)cc(C(C)=O)c2c1 measured_on="NCI-H460 lung" test_result=99.1
compound=O=C(/C=C/c1nnc2n(Cc3ccccc3)c(=O)c3c4c(sc3n12)CCCC4)c1ccccc1 measured_on="NCI-H460 lung" test_result=104
compound=O=C1/C(=C/c2ccc(O)cc2)CSc2ccc(Cl)cc21 measured_on="NCI-H460 lung" test_result=96.5

* * *

Test system: NCI-H522 lung
Test name: NCI-60 one-dose screen, 48 h (100 = growth as untreated, 0 = no growth, -100 = all killed)
Study conditions: 10 µM
About 83,000 compounds went through this panel and 20% of them were active in at least one assay; those are over-represented in the sample as a whole.
Below, each entry is listed alongside its reported growth.
Observed property: growth (%)

molecule=C/C=C\COc1cc(C)c(Cl)cc1Cl observed_property=growth unit_string=% test_result=119
molecule="CC(Oc1ccc(Cl)cc1)c1ccccc1 (centres undefined)" observed_property=growth unit_string=% test_result=103
molecule=Cc1ccc(C(=O)O)c(N)c1C observed_property=growth unit_string=% test_result=87.3
molecule=O=[N+]([O-])c1ccc2c(c1)Cc1cc(I)ccc1-2 observed_property=growth unit_string=% test_result=95.7
molecule=CCc1nn2c(-c3cc(OC)c(OC)c(OC)c3)c(-c3cc(OC)c(OC)c(OC)c3)nc2s1 observed_property=growth unit_string=% test_result=46
molecule="O=C(c1ccccc1)C(Nc1ccccc1)c1ccccc1 (centres undefined)" observed_property=growth unit_string=% test_result=67.7
molecule=O=C(CSc1nnc(-c2ccc(Cl)cc2)o1)c1ccccc1 observed_property=growth unit_string=% test_result=78.6
molecule=O=C(Nc1cccc(C(F)(F)F)c1)C(Cl)Cl observed_property=growth unit_string=% test_result=98.2
molecule="CCCCCN(CCCCC)C(C)C(O)c1ccc2cc(Cl)c3ccccc3c2c1 (centres undefined)" observed_property=growth unit_string=% test_result=90
molecule=O=CNc1c(Cl)cc2c(c1Cl)Cc1cc([N+](=O)[O-])ccc1-2 observed_property=growth unit_string=% test_result=44.7
molecule=O=C(Nc1cccc(-c2nc3ccccc3[nH]2)c1)c1cccc(NC(=O)c2ccco2)c1 observed_property=growth unit_string=% test_result=98.5
molecule=O=C(CCl)N1c2ccccc2Sc2ccc3ccccc3c21 observed_property=growth unit_string=% test_result=-81.1
molecule="CCC(CCNc1cc(OC)cc2cccnc12)CN1C(=O)c2ccccc2C1=O (centres undefined)" observed_property=growth unit_string=% test_result=87.5
molecule=COc1ccc2nc(NC(=O)Nc3c(F)cccc3F)sc2c1 observed_property=growth unit_string=% test_result=96.8
molecule="COc1ccc(C2C=C(c3ccc(OC)c(OC)c3)N=C3SC=CN32)c(Br)c1 (centres undefined)" observed_property=growth unit_string=% test_result=60.8
molecule="CN1/C(=C\\C(I)C(I)C2=[N+](C)c3ccccc3C2(C)C)C(C)(C)c2ccccc21 (centres undefined)" observed_property=growth unit_string=% test_result=-14.1
molecule="COc1cccc(C(=O)N(c2ccc(F)c(F)c2)C(C(=O)NC(C)(C)C)c2cc3c(C)cc(C)cc3nc2Cl)c1 (centres undefined)" observed_property=growth unit_string=% test_result=61.6
molecule=N#Cc1c2c([nH]c(=O)c1C(N)=O)CCCCC2 observed_property=growth unit_string=% test_result=90.7
molecule=Cc1cnc(C=O)c2cccc([N+](=O)[O-])c12 observed_property=growth unit_string=% test_result=96
molecule=N#Cc1c(-c2ccccc2)nc(SCC(=O)N2CCOCC2)[nH]c1=O observed_property=growth unit_string=% test_result=83.6
molecule="Nc1ccc(C2=CC(c3ccc(Cl)cc3)N3C=CSC3=N2)cc1 (centres undefined)" observed_property=growth unit_string=% test_result=-65.9
molecule="CN(C)c1ccc2c(c1)OC(N)=C(C#N)C2c1ccc2c(c1)CCO2 (centres undefined)" observed_property=growth unit_string=% test_result=-6.52
molecule=Cn1c(N)c(N=Cc2ccccc2)c(=O)n(C)c1=O observed_property=growth unit_string=% test_result=101
molecule=O=C1/C(=C/c2ccc([N+](=O)[O-])s2)Oc2ccc(Cl)cc21 observed_property=growth unit_string=% test_result=-70.3
molecule=Cc1cc(/C=C2\SC(=Nc3ccccc3)N(C3CCCC3)C2=O)c(C)n1-c1ccc(Cl)cc1 observed_property=growth unit_string=% test_result=-66.8
molecule=COc1ccc(C(=O)n2nc(CC(=O)NCc3ccccc3)nc2N)cc1 observed_property=growth unit_string=% test_result=104
molecule=CCc1c(C(=O)NCc2c(O)ccc3cccc(O)c23)[nH]c(C)c1C(C)=O observed_property=growth unit_string=% test_result=11.4
molecule=CC(C)CCN(CCCNc1c2c(nc3cc(Cl)ccc13)CCCC2)CCC(C)C observed_property=growth unit_string=% test_result=82.1
molecule="N#CC1C=Cc2c(ccc3ccccc23)N1C(=O)c1ccccc1 (centres undefined)" observed_property=growth unit_string=% test_result=9.32
molecule=COc1cc(-c2n/c(=C\c3c(O)[nH]c4ccccc34)cc3c2=Nc2ccccc2-3)cc(OC)c1OC observed_property=growth unit_string=% test_result=-7.72
molecule=Cc1ccc(NC(=O)/C=N/O)cc1C observed_property=growth unit_string=% test_result=93
molecule=COc1cc(Cn2c(-c3ccccc3)c(Cl)c3c2-c2oncc2CC3)cc(OC)c1 observed_property=growth unit_string=% test_result=9.45
molecule=CC(C)(C)CC(C)(C)c1ccc(O)c(Cc2ccc(Cl)cc2Cl)c1 observed_property=growth unit_string=% test_result=-84.7
molecule=CCCCn1c(=O)[nH]c(N)c(C(c2ccc(Cl)cc2)c2c(N)[nH]c(=O)n(CCCC)c2=O)c1=O observed_property=growth unit_string=% test_result=37.9
molecule="CCCCN(CCCC)c1ccc(C(=NC(C)CCCN(CC)CC)c2ccc(N(C)C)cc2)cc1 (centres undefined)" observed_property=growth unit_string=% test_result=-66.8
molecule=Cc1ccc(C)c(S(=O)(=O)NC2c3ccccc3Oc3ccccc32)c1 observed_property=growth unit_string=% test_result=31.6
molecule=COc1cccc2c1O/C(=C\c1ccc([N+](=O)[O-])s1)C2=O observed_property=growth unit_string=% test_result=-65
molecule="N/C(=N\\O)c1cn(C2OC(CO)C(O)C2O)c2ncnc(N)c12 (centres undefined)" observed_property=growth unit_string=% test_result=-42.9
molecule=C[C@]12CC[C@H]3[C@@H](CC=C4C[C@@H](O)CC[C@@]43C)[C@@H]1CC[C@@H]2C(=O)C/C=N/O observed_property=growth unit_string=% test_result=79.4
molecule=COc1ccc(-c2nc(-c3ccccc3)c(-c3ccccc3)[nH]2)cc1OC1CCCC1 observed_property=growth unit_string=% test_result=36.1
molecule=CCOC(=O)c1cc2c(n1Cc1cccc(OC)c1)-c1oncc1CC2 observed_property=growth unit_string=% test_result=13.7
molecule=N#C/C(=C/c1cc([N+](=O)[O-])ccc1Cl)C(N)=O observed_property=growth unit_string=% test_result=87.7
molecule=COc1ccccc1NC1=C(N2CCCCC2)C(=O)c2ccccc2C1=O observed_property=growth unit_string=% test_result=82.5
molecule="COCCNCC(O)Cn1c2ccc(Cl)cc2c2cc(Cl)ccc21 (centres undefined)" observed_property=growth unit_string=% test_result=-62.8
